Measured normalized growth, listed per entry for reference.
Assay: chemical genetic growth profiling, strain panel (AID 1159580);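 note: tested at 20 µM; growth read once vehicle control cultures reached saturation at 30 °C; 1 = growth at the plate median or of vehicle wells; lower values mean less growth of the strain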
Conditions: S. cerevisiae deletion strains, growth OD, locus YOR290C, strain snf2, active compounds read low
In all, about 5,500 compounds went through this assay and about 2,000 (36%) were called active. About 18% were inconclusive and are not listed. The list shows a part of the results.
API doc: respond with a numeric literal and nothing else, no unit.

Consider the worked cases shown below.
{"compound": "COc1cccc2c1cc([N+](=O)[O-])c1c(C(=O)O)cc3c(c12)OCO3", "metricName": "normalized growth", "recordedMeasurement": 0.995}
{"compound": "CC(C)=CCc1c2c(c(O)c3c(=O)c(O)c(-c4ccccc4)oc13)C=CC(C)(C)O2", "metricName": "normalized growth", "recordedMeasurement": 0.887}

Value lookup for normalized growth; key = CC(=O)Oc1c(-c2ccccc2)oc2c(CC=C(C)C)c3c(c(OC(C)=O)c2c1=O)C=CC(C)(C)O3
1.03

Value lookup for normalized growth; key = CC[C@]12C=CCN3CC[C@@]4(c5ccc(OC)cc5N(C)C4[C@@](O)(C(=O)OC)[C@@H]1OC(C)=O)[C@@H]32 (stereo not given in full)
0.999

Value lookup for normalized growth; key = O=C1CCc2cc(OCCCCc3nnnn3C3CCCCC3)ccc2N1
1
